system: Borrelia burgdorferi; experiment: Antimicrobial activity against Borrelia burgdorferi N40; type: functional; settings: Borreliella burgdorferi
Below is a list of entries, each paired with its recorded MIC value.
result type: MIC (µg/mL)

>>> measured_value("CO/N=C(\\C(=O)N[C@@H]1C(=O)N2C(C(=O)O)=C(CSc3nc(=O)c(O)nn3C)CS[C@H]12)c1csc(N)n1 [CEFTRIAXONE]")
0.048
>>> measured_value("CC1(C)S[C@@H]2[C@H](NC(=O)Cc3ccccc3)C(=O)N2[C@H]1C(=O)O [PENICILLIN G]")
0.024
>>> measured_value("CN(C)c1cc(NC(=O)CNC(C)(C)C)c(O)c2c1C[C@H]1C[C@H]3[C@H](N(C)C)C(O)=C(C(N)=O)C(=O)[C@@]3(O)C(O)=C1C2=O [TIGECYCLINE]")
0.006
>>> measured_value("C[C@H]1c2cccc(O)c2C(=O)C2=C(O)[C@]3(O)C(=O)C(C(N)=O)=C(O)[C@@H](N(C)C)[C@@H]3[C@@H](O)[C@@H]21.O [DOXYCYCLINE]")
0.78

// data source = ChEMBL document CHEMBL1212796
